- ASSAY_TEXT: chemical genetic growth profiling, strain panel (AID 1159580);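 note: tested at 20 µM; growth read once vehicle control cultures reached saturation at 30 °C; lower values mean less growth of the strain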
- RECORDED_CONDITIONS: S. cerevisiae deletion strains, growth OD, locus YGL253W, strain hxk2
Hit rate of the full screen: of about 5,500 compounds, about 2,000 (36%) were called active. About 18% were inconclusive and are not listed. Cut-off read from the data, not from the text of the source: active = normalized growth mostly below about 0.91 (no sharp cut-off); inconclusive = no clear call, values can overlap the other calls; inactive = mostly above about 0.92. This is one part of the list.
Labels: active, inactive

# COMPOUND, DISCRETE_LABEL
records = [
    ("COc1ccc(C(=O)CC(=O)O)c2c1C=CC(C)(C)O2", "inactive"),
    ("NCCc1cnc[nH]1", "inactive"),
    ("COc1ccc([C@H]2Oc3c(I)c(OC)cc(OC)c3C[C@@H]2O)cc1OC", "inactive"),
    ("Oc1cc(O)c2c(c1)O[C@H](c1cc(O)c(O)c(O)c1)[C@H](O)C2", "inactive"),
    ("CCCCCCCCCCC[C@@H](C[C@H]1OC(=O)[C@H]1CCCCCC)OC(=O)[C@@H](CC(C)C)NC=O", "inactive"),
    ("C=C1CCC2[C@](C)(CO)[C@H](O)CC[C@@]2(C)[C@@H]1C/C=C1/C(=O)OC[C@H]1O (stereo not given in full)", "inactive"),
    ("CC(=O)Oc1cc(OC(C)=O)c2c(c1)O[C@H](c1ccc(OC(C)=O)c(OC(C)=O)c1)[C@@H](OC(C)=O)C2", "inactive"),
    ("COc1ccc(C2CNC(=O)C2)cc1OC1CCCC1 (stereo not given)", "inactive"),
    ("C=C[C@@](C)(O)CCC1C(=C)CCC2[C@@](C)(CO)CCC[C@]12C (stereo not given in full)", "inactive"),
    ("CNC(=O)O/N=C(\\C)SC", "inactive"),
    ("CC(=O)Oc1cc(OC(C)=O)c2c(c1)O[C@H](c1ccc(OC(C)=O)c(OC(C)=O)c1)[C@H](OC(C)=O)C2", "inactive"),
    ("O=C(c1ccc(OCCN2CCCCC2)cc1)c1c(-c2ccc(O)cc2)sc2cc(O)ccc12", "inactive"),
    ("CN1C2C[C@H](OC(=O)[C@H](CO)c3ccccc3)C[C@H]1[C@@H](O)C2", "inactive"),
    ("O=C1CCC(N2C(=O)c3ccccc3C2=O)C(=O)N1 (stereo not given)", "inactive"),
    ("c1ccc2c(c1)CCCC2C1=NCCN1 (stereo not given)", "inactive"),
    ("C=C[C@@](C)(O)CCC1C(=C)C[C@H](O)C2C(C)(C)CCCC12C (stereo not given in full)", "inactive"),
    ("O=C(Oc1cc(O)cc2c1C[C@@H](OC(=O)c1cc(O)c(O)c(O)c1)[C@@H](c1cc(O)c(O)c(O)c1)O2)c1cc(O)c(O)c(O)c1", "inactive"),
    ("Oc1cc(O)c2c(c1)O[C@H](c1ccc(O)c(O)c1)[C@H](O)C2", "inactive"),
    ("O=C(O[C@@H]1Cc2c(O)cc(O)cc2O[C@@H]1c1cc(O)c(O)c(O)c1)c1cc(O)c(O)c(O)c1", "active"),
    ("CC[C@]1(O)CC2CN(CCc3c([nH]c4ccccc34)[C@@](C(=O)OC)(c3cc4c(cc3OC)N(C)[C@H]3[C@@](O)(C(=O)OC)[C@H](OC(C)=O)[C@]5(CC)C=CCN6CC[C@]43[C@@H]65)C2)C1 (stereo not given in full)", "inactive"),
]
